System: Staphylococcus epidermidis
method: Antibacterial activity against Staphylococcus epidermidis ATCC12228 assessed as inhibition of bacterial growth incubated for 18 hrs by two-fold serial dilution method
Format: functional
readoutKind: MIC

[[record]]
compound = "C=C[C@]1(C)C[C@@H](OC(=O)CNC(=O)Nc2cccc(Cl)c2)[C@]2(C)[C@H](C)CC[C@]3(CCC(=O)[C@H]32)[C@@H](C)[C@@H]1O"
subjectoftest = "Staphylococcus epidermidis"
readoutkind = "MIC"
recordedvalue = "> 64 µg/mL"

[[record]]
compound = "C=C[C@]1(C)C[C@@H](OC(=O)CNC(=S)Nc2ccccc2)[C@]2(C)[C@H](C)CC[C@]3(CCC(=O)[C@H]32)[C@@H](C)[C@@H]1O"
subjectoftest = "Staphylococcus epidermidis"
readoutkind = "MIC"
recordedvalue = "> 64 µg/mL"

[[record]]
compound = "C=C[C@]1(C)C[C@@H](OC(=O)CNC(=S)NCCCCCCCCCCCCCCCCCC)[C@]2(C)[C@H](C)CC[C@]3(CCC(=O)[C@H]32)[C@@H](C)[C@@H]1O"
subjectoftest = "Staphylococcus epidermidis"
readoutkind = "MIC"
recordedvalue = "> 64 µg/mL"

[[record]]
compound = "C=C[C@]1(C)C[C@@H](OC(=O)CNC(=O)Nc2ccc(F)cc2F)[C@]2(C)[C@H](C)CC[C@]3(CCC(=O)[C@H]32)[C@@H](C)[C@@H]1O"
subjectoftest = "Staphylococcus epidermidis"
readoutkind = "MIC"
recordedvalue = "> 64 µg/mL"

[[record]]
compound = "C=C[C@]1(C)C[C@@H](OC(=O)CSCCN(CC)CC)[C@]2(C)[C@H](C)CC[C@]3(CCC(=O)[C@H]32)[C@@H](C)[C@@H]1O [TIAMULIN]"
subjectoftest = "Staphylococcus epidermidis"
readoutkind = "MIC"
recordedvalue = "32 µg/mL"

[[record]]
compound = "C=C[C@]1(C)C[C@@H](OC(=O)CNC(=O)Nc2ccc(Br)cc2)[C@]2(C)[C@H](C)CC[C@]3(CCC(=O)[C@H]32)[C@@H](C)[C@@H]1O"
subjectoftest = "Staphylococcus epidermidis"
readoutkind = "MIC"
recordedvalue = "> 64 µg/mL"


---

System: HT-29
method: Cytotoxicity against human HT-29 cells assessed as cell growth inhibition measured after 72 hrs by MTT assay
Format: functional, cell-based
conditionDescription: HT-29, 72 h
Recorded IC50 for the following molecules
readoutKind: IC50

[[record]]
smilesrepresentation = "C=C[C@]1(C)C[C@@H](OC(=O)CNC(=O)NC(=O)c2cccc(F)c2)[C@]2(C)[C@H](C)CC[C@]3(CCC(=O)[C@H]32)[C@@H](C)[C@@H]1O"
readoutkind = "IC50"
recordedvalue = "> 10 µM"

[[record]]
smilesrepresentation = "C=C[C@]1(C)C[C@@H](OC(=O)CNC(=O)Nc2ccc(F)cc2)[C@]2(C)[C@H](C)CC[C@]3(CCC(=O)[C@H]32)[C@@H](C)[C@@H]1O"
readoutkind = "IC50"
recordedvalue = "> 10 µM"

[[record]]
smilesrepresentation = "C=C[C@]1(C)C[C@@H](OC(=O)CSCCN(CC)CC)[C@]2(C)[C@H](C)CC[C@]3(CCC(=O)[C@H]32)[C@@H](C)[C@@H]1O"
readoutkind = "IC50"
recordedvalue = "> 10 µM"

[[record]]
smilesrepresentation = "C=C[C@]1(C)C[C@@H](OC(=O)CNC(=O)Nc2ccc(Br)cc2)[C@]2(C)[C@H](C)CC[C@]3(CCC(=O)[C@H]32)[C@@H](C)[C@@H]1O"
readoutkind = "IC50"
recordedvalue = "> 10 µM"

[[record]]
smilesrepresentation = "C=C[C@]1(C)C[C@@H](OC(=O)CNC(=O)Nc2ccc(OC)cc2)[C@]2(C)[C@H](C)CC[C@]3(CCC(=O)[C@H]32)[C@@H](C)[C@@H]1O"
readoutkind = "IC50"
recordedvalue = "> 10 µM"

[[record]]
smilesrepresentation = "C=C[C@]1(C)C[C@@H](OC(=O)CNC(=O)Nc2ccccc2Br)[C@]2(C)[C@H](C)CC[C@]3(CCC(=O)[C@H]32)[C@@H](C)[C@@H]1O"
readoutkind = "IC50"
recordedvalue = "> 10 µM"


---

Recorded IC50 for the following compounds
Tested on: HepG2
method: Cytotoxicity against human HepG2 cells assessed as cell growth inhibition measured after 72 hrs by MTT assay
Assay type: functional, cell-based
conditionDescription: HepG2, 72 h
readoutKind: IC50

[[record]]
smilesrepresentation = "C=C[C@]1(C)C[C@@H](OC(=O)CSCCN(CC)CC)[C@]2(C)[C@H](C)CC[C@]3(CCC(=O)[C@H]32)[C@@H](C)[C@@H]1O"
subjectoftest = "HepG2"
recordedvalue = "> 10 µM"

[[record]]
smilesrepresentation = "C=C[C@]1(C)C[C@@H](OC(=O)CNC(=O)NC(=O)c2cccc(F)c2)[C@]2(C)[C@H](C)CC[C@]3(CCC(=O)[C@H]32)[C@@H](C)[C@@H]1O"
subjectoftest = "HepG2"
recordedvalue = "> 10 µM"

[[record]]
smilesrepresentation = "C=C[C@]1(C)C[C@@H](OC(=O)CNC(=O)Nc2ccc(Br)cc2)[C@]2(C)[C@H](C)CC[C@]3(CCC(=O)[C@H]32)[C@@H](C)[C@@H]1O"
subjectoftest = "HepG2"
recordedvalue = "> 10 µM"

[[record]]
smilesrepresentation = "C=C[C@]1(C)C[C@@H](OC(=O)CNC(=O)Nc2cccc(Br)c2)[C@]2(C)[C@H](C)CC[C@]3(CCC(=O)[C@H]32)[C@@H](C)[C@@H]1O"
subjectoftest = "HepG2"
recordedvalue = "> 10 µM"

[[record]]
smilesrepresentation = "C=C[C@]1(C)C[C@@H](OC(=O)CNC(=O)Nc2ccc(F)cc2)[C@]2(C)[C@H](C)CC[C@]3(CCC(=O)[C@H]32)[C@@H](C)[C@@H]1O"
subjectoftest = "HepG2"
recordedvalue = "> 10 µM"

[[record]]
smilesrepresentation = "C=C[C@]1(C)C[C@@H](OC(=O)CNC(=O)Nc2ccc(F)cc2F)[C@]2(C)[C@H](C)CC[C@]3(CCC(=O)[C@H]32)[C@@H](C)[C@@H]1O"
subjectoftest = "HepG2"
recordedvalue = "> 10 µM"

[[record]]
smilesrepresentation = "C=C[C@]1(C)C[C@@H](OC(=O)CNC(=O)Nc2ccc(OC)cc2)[C@]2(C)[C@H](C)CC[C@]3(CCC(=O)[C@H]32)[C@@H](C)[C@@H]1O"
subjectoftest = "HepG2"
recordedvalue = "> 10 µM"

[[record]]
smilesrepresentation = "C=C[C@]1(C)C[C@@H](OC(=O)CNC(=O)Nc2ccc(Cl)cc2)[C@]2(C)[C@H](C)CC[C@]3(CCC(=O)[C@H]32)[C@@H](C)[C@@H]1O"
subjectoftest = "HepG2"
recordedvalue = "> 10 µM"

[[record]]
smilesrepresentation = "C=C[C@]1(C)C[C@@H](OC(=O)CNC(=O)Nc2ccccc2Br)[C@]2(C)[C@H](C)CC[C@]3(CCC(=O)[C@H]32)[C@@H](C)[C@@H]1O"
subjectoftest = "HepG2"
recordedvalue = "> 10 µM"


---

System: Mycoplasmoides pneumoniae
method: Antibacterial activity against Mycoplasma pneumoniae ATCC29342 assessed as inhibition of bacterial growth incubated for 18 hrs by two-fold serial dilution method
Assay type: functional
readoutKind: MIC (µg/mL)

[[record]]
compound = "C=C[C@]1(C)C[C@@H](OC(=O)CNC(=O)NC(=O)c2ccccc2F)[C@]2(C)[C@H](C)CC[C@]3(CCC(=O)[C@H]32)[C@@H](C)[C@@H]1O"
qual = ">"
recordedvalue = 8

[[record]]
compound = "C=C[C@]1(C)C[C@@H](OC(=O)CNC(=O)Nc2ccc(F)cc2)[C@]2(C)[C@H](C)CC[C@]3(CCC(=O)[C@H]32)[C@@H](C)[C@@H]1O"
qual = "="
recordedvalue = 0.125

[[record]]
compound = "C=C[C@]1(C)C[C@@H](OC(=O)CNC(=O)Nc2ccc(F)cc2F)[C@]2(C)[C@H](C)CC[C@]3(CCC(=O)[C@H]32)[C@@H](C)[C@@H]1O"
qual = "="
recordedvalue = 0.125

[[record]]
compound = "C=C[C@]1(C)C[C@@H](OC(=O)CNC(=O)Nc2cccc(Br)c2)[C@]2(C)[C@H](C)CC[C@]3(CCC(=O)[C@H]32)[C@@H](C)[C@@H]1O"
qual = "="
recordedvalue = 0.25

[[record]]
compound = "C=C[C@]1(C)C[C@@H](OC(=O)CNC(=O)Nc2ccccc2Br)[C@]2(C)[C@H](C)CC[C@]3(CCC(=O)[C@H]32)[C@@H](C)[C@@H]1O"
qual = "="
recordedvalue = 0.5

[[record]]
compound = "C=C[C@]1(C)C[C@@H](OC(=O)CNC(=O)Nc2ccc(Br)cc2)[C@]2(C)[C@H](C)CC[C@]3(CCC(=O)[C@H]32)[C@@H](C)[C@@H]1O"
qual = "="
recordedvalue = 0.5

[[record]]
compound = "C=C[C@]1(C)C[C@@H](OC(=O)CNC(=O)Nc2ccc(OC)cc2)[C@]2(C)[C@H](C)CC[C@]3(CCC(=O)[C@H]32)[C@@H](C)[C@@H]1O"
qual = "="
recordedvalue = 0.0625

[[record]]
compound = "C=C[C@]1(C)C[C@@H](OC(=O)CO)[C@]2(C)[C@H](C)CC[C@]3(CCC(=O)[C@H]32)[C@@H](C)[C@@H]1O [PLEUROMULIN]"
qual = "="
recordedvalue = 0.0625

